System: K4 kissing-loop RNA reporter;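 note: bound reporter read as fluorescence of individual clusters on recovered sequencing chips by microscopy, with normalized cluster intensities fitted with a binding model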
Assay: apparent KD of K4 kissing-loop reporter; higher = weaker reporter binding
Settings: Eterna round: R107; input ligand: tryptophan 2.4 mM
Label rule, in plain words: apparent KD of K4 kissing-loop reporter of 100 nM and up is condition met, under 100 nM is condition not met.

Item AAGCAGUCACUCGAAAUCAUCGAAGAUGAACGAGGACCGGUACGGCCGCCACUCGGAGUGAUGUUCCGAAGACUGCAAAAUAAAA [MatMod 1 - Jieux - Exclusion - Tryptophan A] with apparent KD of K4 kissing-loop reporter of 100 nM or above?
condition met

Identify whether the reported apparent KD of K4 kissing-loop reporter of the following sequence is 100 nM or greater: UCUGGAGUAUAUGAUACCAGCAGUGAGAGACAGGAAGUAUAGUGAUGUUAUAUGAGAGAAUGCCCUUGGCAGCGUGUGCGGUGGC [SSTheophylB.Q]
condition not met

API: above_or_equal(metric=apparent KD of K4 kissing-loop reporter, cutoff=100 nM) for item UGUGUUGUUUUGAUGUUUGGUGUUGCAUGGCAGGAUAUCGUAGAGGCGAGAAGGGCUUGUGAGCGGUAUGAGUGAUGUUUGUAGG [bbgbmullin]
condition met

Please check the record GGGUCUGCCGGAAGGAGCGCACUAUGGAGUGAUGUUCCAUGACCGCACAGCUUGCGGUCAGUGCAGGUAGGUCGCCGGUAGCGUU [Inesor] and state if its apparent KD of K4 kissing-loop reporter is at or above 100 nM.
condition met

Identify whether the reported apparent KD of K4 kissing-loop reporter of the following sequence is 100 nM or greater: AGGUUUUGAUUAGGAUAUGCACUGAGGAGGAGAAUAUAGUGAUGUUAUAUAAGAGGAAUUAGUAGAGUAGAAGGGAUUGAGGUUU [SSFMNB.T]
condition met

Please tell me: is the sequence GGAUAGGACAGAGGAUAUGGUAGUGAUGUUACCAAACUGGUUAUCAAUGUUAGAAAAUUGACAAAACCAGAAGGCUGUCCUAUCG [KL-XFMN-B15] at or over 100 nM in terms of apparent KD of K4 kissing-loop reporter?
condition not met

In plain terms: is recorded apparent KD of K4 kissing-loop reporter at least 100 nM for GUAUAUCGAACUGAUACCAGAGAAUAAAGCAGUGAUGUUGCAUAUAUAAAUAAGACUCGACUCCCUUGGCAGCGGGAAGAUAUAC [On purpose 1] ?
condition met

State whether the measured apparent KD of K4 kissing-loop reporter reaches 100 nM, counting equality as reaching it, for ACCGCAUUGGGAUGAUCCCAAUGCGCUGGUCGAGGACCGGUACGGCCGCCACUCGUCCAGUGAUGUUGGAAUUGGGCUACUGAAG [KL-XTryp-A11]
condition not met

# check: apparent KD of K4 kissing-loop reporter of CGACUAGUCUUGCAACCCUAGUCGAUAUGCUAGGAUAUCAGGAAACUGAGAAGGAGUUUACUUGCAGUGAUGUUGCAAGAAUAAU [KL-SSFMN-A10] is greater than or equal to 100 nM
condition met

Is apparent KD of K4 kissing-loop reporter at least 100 nM? Consider UUAGUCUAGAGAGGAUAUCAGUGAUGUUGAUAUCAAGAUCUGAGAUAGAAUUCUAUCUCAGAUCAAUGAGAAGGCUCUAGACAUU [AK1.2 Exc FMN B]
condition met

Record UAAGAAUAAGAUGCAGUGAUGUUGCAUCUACGAGGACCGGUACGGCCGCCACUCGAGGUCCUCGAACUGCAUCAGAGGACAAUAA [(H,1)-(H,2)-(Trp1)-(Trp2)-(T)'-(H)'-(T)''] ; criterion: apparent KD of K4 kissing-loop reporter no lower than 100 nM. Met?
condition met

# check: apparent KD of K4 kissing-loop reporter of UGUAUGUGAUUUGAUACCAGACCAGCUGGUGGUGUAUGAGUGAUGUUCAUGCUGGUUUGGGUCCCUUGGCAGCAAAUCGCAUACU [KL-SSTheoB29] is greater than or equal to 100 nM
condition not met

Does the reported apparent KD of K4 kissing-loop reporter for UCCUCGAAUCGACCUCGAAAGAGGAUGGAUACCAGAGAAGAAAUUCUCCCUUGGCAGCCAGUGAUGUUGGAACGAGGUAAAUAAA [#SwitchBubble 20 #K4Late] fall at or above the 100 nM mark?
condition met

Given UGACUACAUAAGGAUUAAUCCUAGUGAUGUUAGGAUAUGCUGAUAAGCAGAAGGAACGGAGAUCGAAGGAUCUCAUAUGUAGUCU [whbob_Ex_FMNA__2th195] , state whether its apparent KD of K4 kissing-loop reporter is at least 100 nM.
condition met

Determine whether this sequence has apparent KD of K4 kissing-loop reporter no lower than 100 nM: UUUAACGAGUGAUGUUCGAAAAGUAAUGGUGAGGAUAUCGUUUUUUCGAGAAGGCACCUCGAAGUGAUACGAAAGUAUCGCUUCG [FMN A 3]
condition met

Evaluate CGGGAUGUUAAAGGAUAUAGCAGGUGAUACAAGAAAGUGAGUGAUGUUUAUGUAGAUGAUGAUAUGUUAGAAGGUUAACAAAACG [abcdefghijkl] : apparent KD of K4 kissing-loop reporter at minimum 100 nM?
condition met

Confirm if apparent KD of K4 kissing-loop reporter reported for the sequence CGCGCGCGCUGAGAGGCGCGCGCGAAUGAUACCAGUAUAUAAGAAUACCCUUGGCAGCAUAAGAAAGAUAUAGUGAUGUUGUAUA [SSTheophA.D] is 100 nM or above.
condition not met

Entry UCGCCGCUCACGGCCGCCACUAAGCCCAAGACCAGAGAGUGAUGUUCUAUCCACGUUUCAAUUUUUAGGACCGGGUGAAAGGCGA [theeternabot_sameState_KL_Trp_B_14] : is its apparent KD of K4 kissing-loop reporter no less than 100 nM?
condition met
